# System: Cryptococcus neoformans
# Assay: broth dilution MFC, Cryptococcus neoformans
# Format: cell-based
# Condition: 3 strains, Table R
Measured Endpoint: percentage of strains with MFCs ≤1 mcg/ml

Worked cases, answers included:
[[record]]
compound = "CC[C@@H]([C@@H](C)O)n1ncn(-c2ccc(N3CCN(c4ccc(OC[C@@H]5CO[C@@](Cn6cncn6)(c6ccc(F)cc6F)C5)cc4)CC3)cc2)c1=O"
value = "100 percentage of strains"

[[record]]
compound = "OC(Cn1cncn1)(Cn1cncn1)c1ccc(F)cc1F [fluconazole, reference compound]"
value = "0 percentage of strains"

[[record]]
compound = "CC[C@@H]([C@H](C)O)n1ncn(-c2ccc(N3CCN(c4ccc(OC[C@@H]5CO[C@@](Cn6cncn6)(c6ccc(F)cc6F)C5)cc4)CC3)cc2)c1=O [drawing 23]"
value = "100 percentage of strains"


Kindly consider the entry below.
Return reported percentage of strains with MFCs ≤1 mcg/ml; argument: "CC[C@H]([C@H](C)O)n1ncn(-c2ccc(N3CCN(c4ccc(OC[C@@H]5CO[C@@](Cn6cncn6)(c6ccc(F)cc6F)C5)cc4)CC3)cc2)c1=O"
100 percentage of strains

###

# Test system: Cryptococcus neoformans
# Assay: broth dilution MIC, Cryptococcus neoformans
# Type: cell-based
# Condition: 3 strains, Table Q
Measured percentage of strains with MICs ≤1 mcg/ml values are reported for all entries that follow.

[[record]]
compound = "OC(Cn1cncn1)(Cn1cncn1)c1ccc(F)cc1F [fluconazole, reference compound]"
value = "0 percentage of strains"


Return percentage of strains with MICs ≤1 mcg/ml measured with Cryptococcus neoformans given this compound: "CC[C@H]([C@H](C)O)n1ncn(-c2ccc(N3CCN(c4ccc(OC[C@@H]5CO[C@@](Cn6cncn6)(c6ccc(F)cc6F)C5)cc4)CC3)cc2)c1=O"
100 percentage of strains

Return percentage of strains with MICs ≤1 mcg/ml measured with Cryptococcus neoformans given this compound: CC[C@@H]([C@H](C)O)n1ncn(-c2ccc(N3CCN(c4ccc(OC[C@@H]5CO[C@@](Cn6cncn6)(c6ccc(F)cc6F)C5)cc4)CC3)cc2)c1=O [drawing 23]
100 percentage of strains

Return percentage of strains with MICs ≤1 mcg/ml measured with Cryptococcus neoformans given this compound: "CC[C@@H]([C@@H](C)O)n1ncn(-c2ccc(N3CCN(c4ccc(OC[C@@H]5CO[C@@](Cn6cncn6)(c6ccc(F)cc6F)C5)cc4)CC3)cc2)c1=O"
100 percentage of strains

###

Measured percentage of strains with MICs ≤1 mcg/ml values are reported for all entries that follow.
# System: Aspergillus
# Assay: broth dilution MIC, Aspergillus
# Type: cell-based, Aspergillus (flavus, fumigatus and other species)
# Condition: Aspergillus, 37 strains; Table Q

Worked cases, answers included:
[[record]]
molecule = "CC[C@@H]([C@@H](C)O)n1ncn(-c2ccc(N3CCN(c4ccc(OC[C@@H]5CO[C@@](Cn6cncn6)(c6ccc(F)cc6F)C5)cc4)CC3)cc2)c1=O"
measurement_target = "Aspergillus"
value = "100 percentage of strains"

[[record]]
molecule = "CC[C@H]([C@H](C)O)n1ncn(-c2ccc(N3CCN(c4ccc(OC[C@@H]5CO[C@@](Cn6cncn6)(c6ccc(F)cc6F)C5)cc4)CC3)cc2)c1=O"
measurement_target = "Aspergillus"
value = "100 percentage of strains"

[[record]]
molecule = "OC(Cn1cncn1)(Cn1cncn1)c1ccc(F)cc1F [fluconazole, reference compound]"
measurement_target = "Aspergillus"
value = "0 percentage of strains"


Return percentage of strains with MICs ≤1 mcg/ml measured with Aspergillus given this molecule: CC[C@@H]([C@H](C)O)n1ncn(-c2ccc(N3CCN(c4ccc(OC[C@@H]5CO[C@@](Cn6cncn6)(c6ccc(F)cc6F)C5)cc4)CC3)cc2)c1=O [drawing 23]
100 percentage of strains

Attribution: patent US5693626A
